Recorded pEC50 values for a group of compounds are listed next.
Test system: Leishmania major
test.summary: Antileishmanial activity against luciferase-expressing Leishmania major amastigotes infected in mouse RAW264.7 cells after 96 hrs by luminescence assay
Type: functional, cell-based
condition.description: RAW264.7, 96 h
pEC50: −log10 of the molar value.

IN: Short answer please: pEC50, Leishmania major, entry N#Cc1cnc(Nc2ccnc3ccc(-c4ccc(S(=O)(=O)N5CCOCC5)cc4)cc23)cn1
OUT: < 4.70

IN: Record O=S(=O)(c1ccc(-c2ccc3nccc(Nc4ccc5[nH]nnc5c4)c3c2)cc1)N1CCOCC1 : what is its pEC50 with Leishmania major?
OUT: < 4.70

IN: Item Cc1nnc(Nc2ccnc3ccc(-c4ccc(S(=O)(=O)N5CCOCC5)cc4)cc23)nc1C with Leishmania major - pEC50?
OUT: < 4.70
